System: HeLa
Test Description: SRB colorimetric assay of cell growth and viability, HeLa
Format: cell-based, human
Applied Conditions: 48 hours exposure; read-out: LC50 HELA
Where a SMILES comes first, the peptide text is derived from it. Bridges are numbered along the chain shown (N, C = ends). [ ]: non-standard residue; d: D form. The star is where a group is joined. d(aIle) = CC[C@H](C)[C@@H](N)C(=O)O; d(aThr) = C[C@@H](O)[C@@H](N)C(=O)O; Hexanoyl(5-Me) = CC(C)CCCC(=O)*; dCha = N[C@H](CC1CCCCC1)C(=O)O; Orn = NCCC[C@H](N)C(=O)O; Dhb = C/C=C(\N)C(=O)O
Readout Label: CC50 (µM)
Give the number; µM is assumed, so skip it.

Given item C/C=C1\NC(=O)[C@H](Cc2ccccc2)NC(=O)[C@@H](CC2CCCCC2)NC(=O)[C@@H](CC2CCCCC2)NC(=O)[C@H](NC(=O)[C@@H](CC2CCCCC2)NC(=O)[C@H](CCCN)NC(=O)[C@H]2CCCN2C(=O)[C@H](NC(=O)[C@@H](NC(=O)[C@@H](NC(=O)[C@H](NC(=O)CCCC(C)C)C(C)C)[C@@H](C)O)C(C)C)C(C)C)[C@@H](C)OC(=O)[C@H](C(C)C)NC1=O [Compound 11, [D-Cha^4, D-Cha^5, D-Cha^7]-KF] ({Hexanoyl(5-Me)}-[dV]TV[dV][dP][Orn][dCha][d(aThr)][dCha][dCha]F[Dhb]V; ester 8-C) , the value recorded as its CC50 is 2.55

Given item C/C=C1\NC(=O)[C@H](Cc2ccccc2)NC(=O)[C@@H](C(C)C)NC(=O)[C@@H]([C@@H](C)CC)NC(=O)[C@H](NC(=O)[C@H](NC(=O)[C@H](CCCN)NC(=O)[C@H]2CCCN2C(=O)[C@H](NC(=O)[C@@H](NC(=O)[C@@H](NC(=O)[C@H](NC(=O)c2ccc(C(F)(F)F)cc2)C(C)C)[C@@H](C)O)C(C)C)C(C)C)[C@@H](C)CC)[C@@H](C)OC(=O)[C@H](C(C)C)NC1=O [Compound 21, [p-CF3Bza^14]-KF] , the value recorded as its CC50 is 3.91

Given item C/C=C1\NC(=O)[C@H](Cc2ccccc2)NC(=O)[C@@H](C(C)C)NC(=O)[C@@H]([C@@H](C)CC)NC(=O)[C@H](NC(=O)[C@H](NC(=O)[C@H](CCCN)NC(=O)[C@H]2CCCN2C(=O)[C@H](NC(=O)[C@@H](NC(=O)[C@@H](NC(=O)[C@@H](CC(C)C)NC(=O)CCCC(C)C)[C@@H](C)O)C(C)C)C(C)C)[C@@H](C)CC)[C@@H](C)OC(=O)[C@H](C(C)C)NC1=O [Compound 35, [D-Leu^13]-KF] , the value recorded as its CC50 is 3.43

Given item C/C=C1\NC(=O)[C@H](Cc2ccccc2)NC(=O)[C@@H](C(C)C)NC(=O)[C@@H]([C@@H](C)CC)NC(=O)[C@H](NC(=O)[C@H](NC(=O)[C@H](CCCN)NC(=O)[C@H]2CCCN2C(=O)[C@H](NC(=O)[C@@H](NC(=O)[C@@H](NC(=O)[C@H](NC(=O)CCCC(C)C)C(C)C)C(C)C)C(C)C)C(C)C)[C@@H](C)CC)[C@@H](C)OC(=O)[C@H](C(C)C)NC1=O [Compound 6, [Val^12]-KF] ({Hexanoyl(5-Me)}-[dV]VV[dV][dP][Orn][d(aIle)][d(aThr)][d(aIle)][dV]F[Dhb]V; ester 8-C) , the value recorded as its CC50 is 0.48

Given item C/C=C1\NC(=O)[C@H](Cc2ccccc2)NC(=O)[C@@H](C(C)C)NC(=O)[C@@H]([C@@H](C)CC)NC(=O)[C@H](NC(=O)[C@H](NC(=O)[C@H](CCCN)NC(=O)[C@H]2CCCN2C(=O)[C@H](NC(=O)[C@@H](NC(=O)[C@@H]2CCCN2C(=O)CCCC(C)C)C(C)C)C(C)C)[C@@H](C)CC)[C@@H](C)OC(=O)[C@H](C(C)C)NC1=O [Compound 55, [Pro^12, noD-Val^13]-KF] ({Hexanoyl(5-Me)}-PV[dV][dP][Orn][d(aIle)][d(aThr)][d(aIle)][dV]F[Dhb]V; ester 7-C) , the value recorded as its CC50 is 7.27

Given item C/C=C1\NC(=O)[C@H](Cc2ccccc2)NC(=O)[C@@H](C(C)C)NC(=O)[C@@H]([C@@H](C)CC)NC(=O)[C@H](NC(=O)[C@H](NC(=O)[C@H](CCCN)NC(=O)[C@H]2CCCN2C(=O)[C@H](NC(=O)[C@H](Cc2ccccc2)NC(=O)[C@@H](NC(=O)[C@H](NC(=O)CCCC(C)C)C(C)C)[C@@H](C)O)C(C)C)[C@@H](C)CC)[C@@H](C)OC(=O)[C@H](C(C)C)NC1=O [Compound 43, [Phe^11]-KF] ({Hexanoyl(5-Me)}-[dV]TF[dV][dP][Orn][d(aIle)][d(aThr)][d(aIle)][dV]F[Dhb]V; ester 8-C) , the value recorded as its CC50 is 3.95

Given item C/C=C1\NC(=O)[C@H](Cc2ccccc2)NC(=O)[C@@H](C(C)C)NC(=O)[C@@H]([C@@H](C)CC)NC(=O)[C@H](NC(=O)[C@H](NC(=O)[C@H](CCCN)NC(=O)[C@H]2CCCN2C(=O)[C@H](NC(=O)[C@H](CC(C)C)NC(=O)[C@@H](NC(=O)[C@H](NC(=O)CCCC(C)C)C(C)C)[C@@H](C)O)C(C)C)[C@@H](C)CC)[C@@H](C)OC(=O)[C@H](C(C)C)NC1=O [Compound 45, [Leu^11]-KF] ({Hexanoyl(5-Me)}-[dV]TL[dV][dP][Orn][d(aIle)][d(aThr)][d(aIle)][dV]F[Dhb]V; ester 8-C) , the value recorded as its CC50 is 4.98

---

Give measured CC50 for each item. Keep answers brief.
Test system: SK-MEL-28
Test Description: SRB colorimetric assay of cell growth and viability, SK-MEL-28
Format: cell-based, human
Applied Conditions: MEL-28; 48 hours exposure; read-out: LC50 MEL-28
Where a SMILES comes first, the peptide text is derived from it. Bridges are numbered along the chain shown (N, C = ends). [ ]: non-standard residue; d: D form. The star is where a group is joined. d(aIle) = CC[C@H](C)[C@@H](N)C(=O)O; d(aThr) = C[C@@H](O)[C@@H](N)C(=O)O; Hexanoyl(5-Me) = CC(C)CCCC(=O)*; Orn = NCCC[C@H](N)C(=O)O; Dhb = C/C=C(\N)C(=O)O
Give the number; nM is assumed, so skip it.

Given item C/C=C1\NC(=O)[C@H](Cc2ccc(F)c(F)c2)NC(=O)[C@@H](C(C)C)NC(=O)[C@@H]([C@@H](C)CC)NC(=O)[C@H](NC(=O)[C@H](NC(=O)[C@H](CCCN)NC(=O)[C@H]2CCCN2C(=O)[C@H](NC(=O)[C@@H](NC(=O)[C@@H](NC(=O)[C@H](NC(=O)CCCC(C)C)C(C)C)[C@@H](C)O)C(C)C)C(C)C)[C@@H](C)CC)[C@@H](C)OC(=O)[C@H](C(C)C)NC1=O [Compound 84, [Phe(3,4-F2)^3]-KF] , the value recorded as its CC50 is 561

Given item C/C=C1\NC(=O)[C@H](Cc2ccccc2)NC(=O)[C@@H](C(C)C)NC(=O)[C@@H]([C@@H](C)CC)NC(=O)[C@H](NC(=O)[C@H](NC(=O)[C@H](CCCN)NC(=O)[C@H]2CCCN2C(=O)[C@H](NC(=O)[C@@H](NC(=O)[C@H](CCC(N)=O)NC(=O)[C@H](NC(=O)CCCC(C)C)C(C)C)C(C)C)C(C)C)[C@@H](C)CC)[C@@H](C)OC(=O)[C@H](C(C)C)NC1=O [Compound 119, [Gln^12]-KF] ({Hexanoyl(5-Me)}-[dV]QV[dV][dP][Orn][d(aIle)][d(aThr)][d(aIle)][dV]F[Dhb]V; ester 8-C) , the value recorded as its CC50 is 1990

---

System: IGROV-1
Test Description: SRB colorimetric assay of cell growth and viability, IGROV-1
Assay type: cell-based, human
Applied Conditions: IGROV; 48 hours exposure
Where a SMILES comes first, the peptide text is derived from it. Bridges are numbered along the chain shown (N, C = ends). [ ]: non-standard residue; d: D form. The star is where a group is joined. 2Nal = N[C@@H](Cc1ccc2ccccc2c1)C(=O)O; d(aIle) = CC[C@H](C)[C@@H](N)C(=O)O; d(aThr) = C[C@@H](O)[C@@H](N)C(=O)O; Hexanoyl(5-Me) = CC(C)CCCC(=O)*; Orn = NCCC[C@H](N)C(=O)O; Dhb = C/C=C(\N)C(=O)O
Give measured TGI IGROV for each item. Keep answers brief.
Give the number; Molar is assumed, so skip it.

Given item C/C=C1\NC(=O)[C@H](Cc2ccc(Cl)cc2)NC(=O)[C@@H](C(C)C)NC(=O)[C@@H]([C@@H](C)CC)NC(=O)[C@H](NC(=O)[C@H](NC(=O)[C@H](CCCN)NC(=O)[C@H]2CCCN2C(=O)[C@H](NC(=O)[C@@H](NC(=O)[C@@H](NC(=O)[C@H](NC(=O)CCCC(C)C)C(C)C)[C@@H](C)O)C(C)C)C(C)C)[C@@H](C)CC)[C@@H](C)OC(=O)[C@H](C(C)C)NC1=O [Compound 83, [Phe(4-Cl)^3]-KF] , the value recorded as its TGI IGROV is 7.69E−08

Given item C/C=C1\NC(=O)[C@H](Cc2ccccc2)NC(=O)[C@@H](C(C)C)NC(=O)[C@@H]([C@@H](C)CC)NC(=O)[C@H](NC(=O)[C@H](NC(=O)[C@H](CCCN)NC(=O)[C@H]2CCCN2C(=O)[C@H](NC(=O)[C@@H](NC(=O)[C@H](CCC(N)=O)NC(=O)[C@H](NC(=O)CCCC(C)C)C(C)C)C(C)C)C(C)C)[C@@H](C)CC)[C@@H](C)OC(=O)[C@H](C(C)C)NC1=O [Compound 119, [Gln^12]-KF] ({Hexanoyl(5-Me)}-[dV]QV[dV][dP][Orn][d(aIle)][d(aThr)][d(aIle)][dV]F[Dhb]V; ester 8-C) , the value recorded as its TGI IGROV is 1.07E−06

Given item C/C=C1\NC(=O)[C@H](Cc2ccc3ccccc3c2)NC(=O)[C@@H](C(C)C)NC(=O)[C@@H]([C@@H](C)CC)NC(=O)[C@H](NC(=O)[C@H](NC(=O)[C@H](CCCN)NC(=O)[C@H]2CCCN2C(=O)[C@H](NC(=O)[C@@H](NC(=O)[C@@H](NC(=O)[C@H](NC(=O)CCCC(C)C)C(C)C)[C@@H](C)O)C(C)C)C(C)C)[C@@H](C)CC)[C@@H](C)OC(=O)[C@H](C(C)C)NC1=O [Compound 85, [Nal^3]-KF] ({Hexanoyl(5-Me)}-[dV]TV[dV][dP][Orn][d(aIle)][d(aThr)][d(aIle)][dV][2Nal][Dhb]V; ester 8-C) , the value recorded as its TGI IGROV is 9.81E−08

Given item C/C=C1\NC(=O)[C@H](Cc2ccccc2)NC(=O)[C@@H](C(C)C)NC(=O)[C@@H]([C@@H](C)CC)NC(=O)[C@H](NC(=O)[C@H](NC(=O)[C@H](CCCN)NC(=O)[C@H]2CCCN2C(=O)[C@H](NC(=O)[C@@H](NC(=O)CNC(=O)[C@H](NC(=O)CCCC(C)C)C(C)C)C(C)C)C(C)C)[C@@H](C)CC)[C@@H](C)OC(=O)[C@H](C(C)C)NC1=O [Compound 111, [Gly^12]-KF] ({Hexanoyl(5-Me)}-[dV]GV[dV][dP][Orn][d(aIle)][d(aThr)][d(aIle)][dV]F[Dhb]V; ester 8-C) , the value recorded as its TGI IGROV is 3.72E−07
